# EXPERIMENTAL SYSTEM: HIV-1 RT wild-type enzyme (Human immunodeficiency virus type 1 group M subtype B (isolate HXB2) (HIV-1), UniProt P04585)
# ASSAY NAME: HIV-1 reverse transcriptase inhibitory activity (RT polymerase assay)
# Type: biochemical
# MEASUREMENT CONDITIONS: HIV-1 RT wild-type enzyme 83 pM; RNA-dependent DNA polymerase activity; read-out: IC50
Lab note - cut at 7 nM for IC50: 1.0 if strictly below, 0.0 if not.

Answered examples (2):
{"MOLECULE": "N#Cc1cccc(Oc2c(C(F)(F)F)ncn(Cc3cc(C(F)F)n[nH]c3=O)c2=O)c1F [Example 174]", "QUALITATIVE LABEL": 1.0}
{"MOLECULE": "COc1cccc(F)c1-c1cc(Cn2cnc(C(F)(F)F)c(Oc3cc(Cl)cc(C#N)c3)c2=O)n[nH]c1=O [Example 51]", "QUALITATIVE LABEL": 0.0}

Attention now turns to another entry.
Query: Hello, I'm reviewing records and need to know if IC50 of N#Cc1cc(Cl)cc(Oc2c(C(F)(F)F)ncn(Cc3cc(C#N)c(=O)[nH]n3)c2=O)c1 [Example 95] is below 7 nM. Could you check?
Reply: 0.0

###

Record form. Attribute: IC50. Fill in for each entry.
# EXPERIMENTAL SYSTEM: HIV-1 RT wild-type enzyme (Human immunodeficiency virus type 1 group M subtype B (isolate HXB2) (HIV-1))
# ASSAY NAME: HIV-1 reverse transcriptase inhibitory activity (RT polymerase assay)
# Type: biochemical
# MEASUREMENT CONDITIONS: HIV-1 RT wild-type enzyme 83 pM; RNA-dependent DNA polymerase activity; read-out: IC50
Numbers only, in nM.

Known results for compounds:
{"COMPOUND": "N#Cc1cc(Cl)cc(Oc2c(C(F)(F)F)ncn(Cc3cnc(O)cn3)c2=O)c1 [Example 2]", "REPORTED MEASUREMENT": 118}
{"COMPOUND": "N#Cc1cc(Cl)cc(Oc2c(C(F)(F)F)ncn(Cc3cc(-n4ccnn4)c(=O)[nH]n3)c2=O)c1 [Example 94]", "REPORTED MEASUREMENT": 48}
{"COMPOUND": "N#Cc1cc(Cl)cc(Oc2c(C(F)(F)F)ncn(Cc3cnc(C4CC4)[nH]c3=O)c2=O)c1 [Example 145]", "REPORTED MEASUREMENT": 9}
{"COMPOUND": "N#Cc1cccc(Oc2c(C(F)(F)F)ncn(Cc3ccc(=O)[nH]n3)c2=O)c1F [Example 161]", "REPORTED MEASUREMENT": 24}
{"COMPOUND": "Cc1ncn(Cc2cc(-c3ccc(F)cc3)c(=O)[nH]n2)c(=O)c1Oc1cc(Cl)cc(C#N)c1 [Example 169]", "REPORTED MEASUREMENT": 4}
{"COMPOUND": "N#Cc1cc(Cl)cc(Oc2c(C(F)(F)F)ncn(Cc3cc(-c4ccncc4)c(=O)[nH]n3)c2=O)c1 [Example 81]", "REPORTED MEASUREMENT": 9}

Provide IC50 for all items below, preserving their order.
1. N#Cc1cc(Cl)cc(Oc2c(C(F)(F)F)ncn(Cc3cnc(OCC(F)(F)F)[nH]c3=O)c2=O)c1 [Example 139]
2. N#Cc1cc(Cl)cc(Oc2c(C(F)(F)F)ncn(Cc3cc(-c4ccccc4)c(=O)[nH]n3)c2=O)c1 [Example 22]
3. Cc1cccc(-c2cc(Cn3cnc(C(F)(F)F)c(Oc4cc(Cl)cc(C#N)c4)c3=O)n[nH]c2=O)c1F [Example 38]
4. N#Cc1cc(Cl)cc(Oc2c(C(F)(F)F)ncn(Cc3cnc(C(N)=O)[nH]c3=O)c2=O)c1 [Example 154]

Reply:
1. 45
2. 3
3. 110
4. 42

Provide IC50 for all items below, preserving their order.
1. N#Cc1cc(Cl)cc(Oc2c(C(F)(F)F)ncn(Cc3cc(-c4ccn[nH]4)c(=O)[nH]n3)c2=O)c1 [Example 65]
2. N#Cc1cc(Cl)cc(Oc2c(C(F)(F)F)ncn(Cc3cc(-c4cc(F)cc(F)c4)c(=O)[nH]n3)c2=O)c1 [Example 33]
3. N#Cc1cc(Cl)cc(Oc2c(C(F)(F)F)ncn(Cc3cc(OC(F)F)c(=O)[nH]n3)c2=O)c1 [Example 109]
4. N#Cc1cc(Cl)cc(Oc2c(C(F)(F)F)ncn(Cc3cc(-c4cc(F)cc(Cl)c4)c(=O)[nH]n3)c2=O)c1 [Example 27]
5. N#Cc1cc(Cl)cc(Oc2c(C(F)(F)F)ncn(Cc3cc(-c4cc(Cl)ccc4F)c(=O)[nH]n3)c2=O)c1 [Example 47]

Reply:
[5, 7, 7, 14, 11]

###

# EXPERIMENTAL SYSTEM: HIV-1 RT wild-type enzyme (Human immunodeficiency virus type 1 group M subtype B (isolate HXB2) (HIV-1), UniProt P04585)
# ASSAY NAME: HIV-1 reverse transcriptase inhibitory activity (RT polymerase assay)
# Type: biochemical
# MEASUREMENT CONDITIONS: HIV-1 RT wild-type enzyme 83 pM; RNA-dependent DNA polymerase activity; read-out: IC50
Record form. Attribute: pIC50. Fill in for each entry.
Give bare numbers, as −log10 of the molar value.

{"COMPOUND": "N#Cc1cc(Cl)cc(Oc2c(C(F)(F)F)ncn(Cc3cc(-c4ccc(F)nc4)c(=O)[nH]n3)c2=O)c1", "pIC50": 8.22}
{"COMPOUND": "N#Cc1cc(Cl)cc(Oc2c(C(F)F)ncn(Cc3ccc(=O)[nH]n3)c2=O)c1", "pIC50": 7.59}

Provide pIC50 for all items below, preserving their order.
1. N#Cc1cccc(Oc2c(C(F)(F)F)ncn(Cc3cc(-c4ccc(F)cc4)c(=O)[nH]n3)c2=O)c1F
2. N#Cc1cc(Cl)cc(Oc2c(C(F)(F)F)ncn(Cc3cc(-c4ccc(OC(F)(F)F)cc4)c(=O)[nH]n3)c2=O)c1
3. COc1cccc(-c2cc(Cn3cnc(C(F)(F)F)c(Oc4cc(Cl)cc(C#N)c4)c3=O)n[nH]c2=O)c1F
4. N#Cc1cc(Cl)cc(Oc2c(C(F)(F)F)ncn(Cc3cnc(Oc4ccc(F)cc4)[nH]c3=O)c2=O)c1
5. N#Cc1cc(Cl)cc(Oc2c(C(F)(F)F)ncn(Cc3cc(C(O)C(F)(F)F)c(=O)[nH]n3)c2=O)c1 (stereo not shown)

Reply:
1: 8.52; 2: 7.62; 3: 8.40; 4: 7.44; 5: 7.13

###

# EXPERIMENTAL SYSTEM: HIV-1 RT wild-type enzyme (Human immunodeficiency virus type 1 group M subtype B (isolate HXB2) (HIV-1), UniProt P04585)
# ASSAY NAME: HIV-1 reverse transcriptase inhibitory activity (RT polymerase assay)
# Assay type: biochemical
# MEASUREMENT CONDITIONS: HIV-1 RT wild-type enzyme 83 pM; RNA-dependent DNA polymerase activity; read-out: IC50
REPORTED ENDPOINT: pIC50
Give bare numbers, as −log10 of the molar value.

Known results for compounds:
{"COMPOUND": "N#Cc1cc(Cl)cc(Oc2c(C(F)(F)F)ncn(Cc3cc(C(F)(F)F)c(=O)[nH]n3)c2=O)c1 [Example 6]", "REPORTED ENDPOINT": "pIC50", "REPORTED MEASUREMENT": 8.10}
{"COMPOUND": "N#Cc1cc(Cl)cc(Oc2c(C(F)(F)F)ncn(Cc3cnc(N)[nH]c3=O)c2=O)c1 [Example 143]", "REPORTED ENDPOINT": "pIC50", "REPORTED MEASUREMENT": 8.15}
{"COMPOUND": "N#Cc1cc(Cl)cc(Oc2c(C(F)(F)F)ncn(Cc3cc(-c4cccc(C#N)c4)c(=O)[nH]n3)c2=O)c1 [Example 54]", "REPORTED ENDPOINT": "pIC50", "REPORTED MEASUREMENT": 8.10}

Provide pIC50 for all items below, preserving their order.
1. N#Cc1cc(Cl)cc(Oc2c(C(F)(F)F)ncn(Cc3cc(-c4cccnc4)c(=O)[nH]n3)c2=O)c1 [Example 73]
2. CC(F)(F)c1ncn(Cc2cc(-c3ccc(F)cc3)c(=O)[nH]n2)c(=O)c1Oc1cc(Cl)cc(C#N)c1 [Example 170]
3. CC(F)(F)c1ncn(Cc2cc(C(F)F)n[nH]c2=O)c(=O)c1Oc1cc(Cl)cc(C#N)c1 [Example 175]
4. N#Cc1cc(Cl)cc(Oc2c(C(F)(F)F)ncn(Cc3cc(-c4ccc(Cl)c(F)c4)n[nH]c3=O)c2=O)c1 [Example 123]

Reply:
7.96
8.30
8.52
8.22

###

# EXPERIMENTAL SYSTEM: HIV-1 RT wild-type enzyme (Human immunodeficiency virus type 1 group M subtype B (isolate HXB2) (HIV-1))
# ASSAY NAME: HIV-1 reverse transcriptase inhibitory activity (RT polymerase assay)
# Assay type: biochemical
# MEASUREMENT CONDITIONS: HIV-1 RT wild-type enzyme 83 pM; RNA-dependent DNA polymerase activity; read-out: IC50
# Procedure: Determination of HIV-1 Reverse Transcriptase Inhibitory Activity The heterodimeric nucleic acid substrate used in the HIV-1 RT polymerase reactions was generated by annealing the DNA primer, biotinylated pD500 (Sigma Aldrich, USA, 5′-biotin-ttg aaa tga ctg cgg tac ggc-3′), SEQ ID NO. […] Titration curves and IC50 values were calculated using a four parameter logisitc fit according to standard procedures. […]
Record form. Attribute: pIC50. Fill in for each entry.
Numbers only, as −log10 of the molar value.

Known results for compounds:
{"COMPOUND": "CS(=O)(=O)c1cc(Cn2cnc(C(F)(F)F)c(Oc3cc(Cl)cc(C#N)c3)c2=O)n[nH]c1=O [Example 96]", "pIC50": 6.47}
{"COMPOUND": "N#Cc1cc(Cl)cc(Oc2c(C(F)(F)F)ncn(Cc3cc(C4CC4)c(=O)[nH]n3)c2=O)c1 [Example 66]", "pIC50": 8.15}
{"COMPOUND": "N#Cc1cc(Cl)cc(Oc2c(C(F)(F)F)ncn(Cc3cc(-c4ccnc5[nH]ccc45)n[nH]c3=O)c2=O)c1 [Example 126]", "pIC50": 8.40}

Now examine the next entry.
Query: Can you look up the measured pIC50 of N#Cc1cc(Cl)cc(Oc2c(C(F)(F)F)ncn(Cc3cnc(-c4ccc(OC(F)F)cc4)[nH]c3=O)c2=O)c1 [Example 159] for me?
Reply: 7.77

Reference source: patent US9718819B2
